Structures can show the parent of a compound that is named as a salt.
The listing below reports Ki for compounds tested on UniProtKB P06870.
Sequence (P06870 25-262): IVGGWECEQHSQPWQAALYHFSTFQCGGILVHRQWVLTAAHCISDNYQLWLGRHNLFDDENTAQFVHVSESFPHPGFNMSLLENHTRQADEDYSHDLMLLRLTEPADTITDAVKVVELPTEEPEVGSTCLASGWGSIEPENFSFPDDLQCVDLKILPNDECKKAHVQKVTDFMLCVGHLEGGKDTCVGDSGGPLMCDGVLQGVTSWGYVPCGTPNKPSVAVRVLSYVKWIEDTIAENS

compound: NCc1ccc(Cl)cc1CNC(=O)[C@@H]1CCN1C(=O)[C@@H](CC(=O)N1CCNCC1)NS(=O)(=O)Cc1ccccc1 [Compound 2.50, TFA]
Ki: > 100 µM

compound: NCc1ccc(Cl)cc1CNC(=O)[C@@H]1CNCCN1C(=O)[C@@H](CC(=O)N1CCCCC1)NS(=O)(=O)Cc1ccccc1
Ki: > 20 µM

compound: CN(CC1CCOCC1)C(=O)C[C@@H](NS(=O)(=O)Cc1ccccc1)C(=O)N1CCC[C@H]1C(=O)NCc1cc(Cl)ccc1CN [Compound 2.47, TFA]
Ki: > 20 µM

compound: NCc1ccc(Cl)cc1CNC(=O)[C@@H]1CCCN1C(=O)[C@@H](CC(=O)N1CC[C@@H](O)C1)NS(=O)(=O)Cc1ccccc1
Ki: > 200 µM

----------
target: human factor IIa (human alpha-thrombin) (Homo sapiens)
pKi: −log10 of the molar value.

compound: NCc1ccc(Cl)cc1CNC(=O)[C@@H]1CCCN1C(=O)[C@@H](CC(=O)N1CC[S+]([O-])CC1)NS(=O)(=O)Cc1ccccc1 [Compound 2.38]
pKi: 8.11

compound: CN(CC1CCNCC1)C(=O)C[C@@H](NS(=O)(=O)Cc1ccccc1)C(=O)N1CCC[C@H]1C(=O)NCc1cc(Cl)ccc1CN [Compound 2.16]
pKi: 9.52

compound: NCc1ccc(Cl)cc1CNC(=O)[C@@H]1C[C@H](N)CN1C(=O)[C@@H](CCC(=O)N1CCOCC1)NS(=O)(=O)Cc1ccccc1 [Compound 2.24]
pKi: 8.89

compound: N[C@H]1C[C@@H](C(=O)NCc2cc(Cl)ccc2-n2cnnn2)N(C(=O)[C@@H](CCC(=O)N2CCOCC2)NS(=O)(=O)Cc2ccccc2)C1 [Compound 2.23]
pKi: 8.17

----------
Molecular target: Human Activated Protein C (h aPC) (Homo sapiens, UniProt P04070)
Sequence (P04070 212-450 limits assumed): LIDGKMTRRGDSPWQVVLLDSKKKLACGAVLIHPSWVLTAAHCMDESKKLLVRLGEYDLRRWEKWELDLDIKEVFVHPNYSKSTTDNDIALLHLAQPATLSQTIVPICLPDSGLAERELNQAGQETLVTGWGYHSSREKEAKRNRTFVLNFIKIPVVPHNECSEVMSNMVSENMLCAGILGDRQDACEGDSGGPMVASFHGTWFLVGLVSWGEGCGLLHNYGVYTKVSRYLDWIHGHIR
Sequence (P04070 43-197 partner limits assumed): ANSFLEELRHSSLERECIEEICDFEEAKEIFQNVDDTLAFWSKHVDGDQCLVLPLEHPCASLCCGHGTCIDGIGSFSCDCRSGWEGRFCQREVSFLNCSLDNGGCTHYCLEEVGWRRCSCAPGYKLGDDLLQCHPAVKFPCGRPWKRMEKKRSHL
Assay: Inhibition of human activated protein C (reference enzyme)
Settings: Pefachrome PCa substrate
Protocol: The inhibitory effect against the individual purified enzymes was determined in analogy to a previously disclosed method (Stürzebecher et al., J. Med. Chem., 40, 3091-3099 (1997)). The release of p-nitroaniline (p-NA, the chromogenic product of the proteolytic activity), was determined by change in absorbance at 405 nm. […] Dissociation constants were calculated as described herein.
// Ki lookup, one value per entry
outcome-measure: Ki

compound: CN(CC1CCNCC1)C(=O)C[C@@H](NS(=O)(=O)Cc1ccccc1)C(=O)N1CCC[C@H]1C(=O)NCc1cc(Cl)ccc1CN [Compound 2.16]
assay-system: Human Activated Protein C (h aPC) (Homo sapiens, UniProt P04070)
measurement: > 100 µM
--
compound: NCc1ccc(Cl)cc1CNC(=O)[C@@H]1CCCN1C(=O)[C@@H](CC(=O)N1CC[C@@H](O)C1)NS(=O)(=O)Cc1ccccc1 [Compound 2.9]
assay-system: Human Activated Protein C (h aPC) (Homo sapiens, UniProt P04070)
measurement: > 25 µM
--
compound: NCc1ccc(Cl)cc1CNC(=O)[C@@H]1CCCN1C(=O)[C@@H](CC(=O)N1CC[C@H](O)C1)NS(=O)(=O)Cc1ccccc1 [Compound 2.10]
assay-system: Human Activated Protein C (h aPC) (Homo sapiens, UniProt P04070)
measurement: > 20 µM

----------
target: Human plasma kallikrein (h PK) (Homo sapiens, UniProt P03952); assay: Inhibition of human plasma kallikrein (reference enzyme); details: S2302 substrate
Sequence (P03952 391-638 limits assumed): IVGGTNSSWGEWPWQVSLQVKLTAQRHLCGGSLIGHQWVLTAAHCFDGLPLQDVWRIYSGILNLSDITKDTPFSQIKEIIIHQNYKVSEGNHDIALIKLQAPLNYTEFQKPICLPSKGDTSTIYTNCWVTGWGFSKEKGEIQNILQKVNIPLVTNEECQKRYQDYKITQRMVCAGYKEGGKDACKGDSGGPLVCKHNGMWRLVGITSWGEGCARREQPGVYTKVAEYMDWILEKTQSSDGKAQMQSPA
Sequence (P03952 20-390 partner limits assumed): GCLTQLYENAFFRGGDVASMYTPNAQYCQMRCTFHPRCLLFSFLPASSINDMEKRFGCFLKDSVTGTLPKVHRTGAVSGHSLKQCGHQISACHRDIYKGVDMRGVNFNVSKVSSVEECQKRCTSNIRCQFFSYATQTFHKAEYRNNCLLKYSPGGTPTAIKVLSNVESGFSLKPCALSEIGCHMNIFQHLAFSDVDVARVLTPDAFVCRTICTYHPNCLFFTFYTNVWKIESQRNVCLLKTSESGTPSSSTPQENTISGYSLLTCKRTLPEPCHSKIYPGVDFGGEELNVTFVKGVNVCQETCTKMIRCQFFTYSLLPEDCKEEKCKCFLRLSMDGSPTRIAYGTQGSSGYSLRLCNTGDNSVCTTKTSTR
Structures can show the parent of a compound that is named as a salt.
# Lookup of reported Ki keyed by entry

molecule: NCc1ccc(Cl)cc1CNC(=O)[C@@H]1C[C@@H](N)CN1C(=O)[C@@H](CCC(=O)N1CCOCC1)NS(=O)(=O)Cc1ccccc1
assay-system: Human plasma kallikrein (h PK) (Homo sapiens, UniProt P03952)
Ki, nM: 2580
--
molecule: CN(CC1CCOCC1)C(=O)C[C@@H](NS(=O)(=O)Cc1ccccc1)C(=O)N1CCC[C@H]1C(=O)NCc1cc(Cl)ccc1CN [Compound 2.47, TFA]
assay-system: Human plasma kallikrein (h PK) (Homo sapiens, UniProt P03952)
Ki, nM: 304
--
molecule: CC(=O)N1CCN(C(=O)C[C@@H](NS(=O)(=O)Cc2ccccc2)C(=O)N2CCC[C@H]2C(=O)NCc2cc(Cl)ccc2CN)CC1
assay-system: Human plasma kallikrein (h PK) (Homo sapiens, UniProt P03952)
Ki, nM: 478
--
molecule: NCc1ccc(Cl)cc1CNC(=O)[C@@H]1CCCCN1C(=O)[C@@H](CCC(=O)N1CCOCC1)NS(=O)(=O)Cc1ccccc1
assay-system: Human plasma kallikrein (h PK) (Homo sapiens, UniProt P03952)
Ki, nM: 7200

----------
molecular target: Human Activated Protein C (h aPC) (Homo sapiens); experiment: Inhibition of human activated protein C (reference enzyme); conditions: Pefachrome PCa substrate
pKi: −log10 of the molar value. Structures can show the parent of a compound that is named as a salt.

molecule: NCc1ccc(Cl)cc1CNC(=O)[C@@H]1CCCN1C(=O)[C@H](N)CCC(=O)N1CCOCC1 [Compound 2.49, TFA]
pKi: < 5.00
--
molecule: CN(C(=O)CC[C@@H](NS(=O)(=O)Cc1ccccc1)C(=O)N1CCC[C@H]1C(=O)NCc1cc(Cl)ccc1CN)C1CCNCC1
pKi: < 4.30
--
molecule: CN(CC1CCOCC1)C(=O)C[C@@H](NS(=O)(=O)Cc1ccccc1)C(=O)N1CCC[C@H]1C(=O)NCc1cc(Cl)ccc1CN [Compound 2.47, TFA]
pKi: < 4.00
--
molecule: CN(C(=O)CC[C@@H](NS(=O)(=O)Cc1ccccc1)C(=O)N1CCC[C@H]1C(=O)NCc1cc(Cl)ccc1CN)C1CCOCC1
pKi: < 4.30
--
molecule: N[C@H]1C[C@@H](C(=O)NCc2cc(Cl)ccc2-n2cnnn2)N(C(=O)[C@@H](CCC(=O)N2CCOCC2)NS(=O)(=O)Cc2ccccc2)C1
pKi: 5.17

----------
biological target: Human tissue-type plasminogen activator (h t-PA) (Homo sapiens, UniProt P00750); construct: purchased Boehringer Ingelheim Actilyse; experiment: Inhibition of human tissue-type plasminogen activator (reference enzyme); type: biochemical; settings: Pefachrome tPA substrate; read-out: Ki h t-PA
Sequence (P00750 36-562): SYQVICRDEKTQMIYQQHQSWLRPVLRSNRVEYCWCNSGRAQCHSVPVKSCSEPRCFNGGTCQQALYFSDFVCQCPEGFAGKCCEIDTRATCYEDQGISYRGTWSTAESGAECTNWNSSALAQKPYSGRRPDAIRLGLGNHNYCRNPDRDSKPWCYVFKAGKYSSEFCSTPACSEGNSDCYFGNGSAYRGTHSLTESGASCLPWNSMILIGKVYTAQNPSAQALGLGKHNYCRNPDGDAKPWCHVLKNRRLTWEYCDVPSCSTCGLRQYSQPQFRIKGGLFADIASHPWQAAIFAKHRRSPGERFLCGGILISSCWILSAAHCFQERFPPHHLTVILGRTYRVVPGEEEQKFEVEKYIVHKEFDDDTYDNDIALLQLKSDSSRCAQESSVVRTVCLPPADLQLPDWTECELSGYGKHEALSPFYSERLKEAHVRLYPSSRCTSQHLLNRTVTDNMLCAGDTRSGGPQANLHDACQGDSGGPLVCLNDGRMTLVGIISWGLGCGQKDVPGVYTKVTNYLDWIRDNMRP
outcome-measure: Ki

smiles-text: CN(CC1CCNCC1)C(=O)C[C@@H](NS(=O)(=O)Cc1ccccc1)C(=O)N1CCC[C@H]1C(=O)NCc1cc(Cl)ccc1CN
assay-system: Human tissue-type plasminogen activator (h t-PA) (Homo sapiens, UniProt P00750)
measurement: > 50 µM

smiles-text: NCc1ccc(Cl)cc1CNC(=O)[C@@H]1CCCN1C(=O)[C@@H](CC(=O)N1CC[S+]([O-])CC1)NS(=O)(=O)Cc1ccccc1
assay-system: Human tissue-type plasminogen activator (h t-PA) (Homo sapiens, UniProt P00750)
measurement: > 20 µM

smiles-text: NCc1ccc(Cl)cc1CNC(=O)[C@@H]1CCCN1C(=O)[C@@H](CCC(=O)N1CCNCC1)NS(=O)(=O)Cc1ccccc1
assay-system: Human tissue-type plasminogen activator (h t-PA) (Homo sapiens, UniProt P00750)
measurement: > 20 µM

smiles-text: N[C@H]1C[C@@H](C(=O)NCc2cc(Cl)ccc2-n2cnnn2)N(C(=O)[C@@H](CCC(=O)N2CCOCC2)NS(=O)(=O)Cc2ccccc2)C1
assay-system: Human tissue-type plasminogen activator (h t-PA) (Homo sapiens, UniProt P00750)
measurement: 4.8 µM

smiles-text: NCc1ccc(Cl)cc1CNC(=O)[C@@H]1CCCN1C(=O)[C@@H](CC(=O)N1CCOCC1)NS(=O)(=O)Cc1ccccc1
assay-system: Human tissue-type plasminogen activator (h t-PA) (Homo sapiens, UniProt P00750)
measurement: 18 µM

smiles-text: CC(=O)N1CCC(N(C)C(=O)CC[C@@H](NS(=O)(=O)Cc2ccccc2)C(=O)N2CCC[C@H]2C(=O)NCc2cc(Cl)ccc2CN)CC1
assay-system: Human tissue-type plasminogen activator (h t-PA) (Homo sapiens, UniProt P00750)
measurement: > 100 µM

smiles-text: NCc1ccc(Cl)cc1CNC(=O)[C@@H]1CCN1C(=O)[C@@H](CC(=O)N1CCCCC1)NS(=O)(=O)Cc1ccccc1
assay-system: Human tissue-type plasminogen activator (h t-PA) (Homo sapiens, UniProt P00750)
measurement: > 20 µM

----------
molecular target: human Factor Xa (Homo sapiens, UniProt P00742)
Sequence (P00742 235-488 limits assumed): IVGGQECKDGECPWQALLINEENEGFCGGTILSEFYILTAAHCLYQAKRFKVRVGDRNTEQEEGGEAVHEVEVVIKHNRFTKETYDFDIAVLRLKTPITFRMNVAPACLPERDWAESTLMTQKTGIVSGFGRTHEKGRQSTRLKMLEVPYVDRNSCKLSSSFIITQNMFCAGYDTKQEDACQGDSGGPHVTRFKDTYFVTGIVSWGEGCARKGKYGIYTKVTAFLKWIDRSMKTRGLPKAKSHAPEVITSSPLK
Sequence (P00742 41-179 partner limits assumed): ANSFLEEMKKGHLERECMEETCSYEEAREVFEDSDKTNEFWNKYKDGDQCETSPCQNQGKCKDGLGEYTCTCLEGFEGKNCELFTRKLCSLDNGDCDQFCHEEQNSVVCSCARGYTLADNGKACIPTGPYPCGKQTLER
Counter-ions that a name gives are not always drawn.
// log10 Ki lookup, one value per entry
outcome-measure: log10 Ki (log10 of the value in nM)

compound: CN(CC1CCOCC1)C(=O)C[C@@H](NS(=O)(=O)Cc1ccccc1)C(=O)N1CCC[C@H]1C(=O)NCc1cc(Cl)ccc1CN [Compound 2.47, TFA]
log10 Ki: 0.30

compound: NCc1ccc(Cl)cc1CNC(=O)[C@@H]1CCCN1C(=O)[C@@H](CC(=O)Nc1ccncc1)NS(=O)(=O)Cc1ccccc1 [Compound 2.34]
log10 Ki: 1.32

compound: NCc1ccc(Cl)cc1CNC(=O)[C@@H]1CCCN1C(=O)[C@@H](CCC(=O)N1CCOCC1)NS(=O)(=O)Cc1ccccc1 [Compound 2.1, TFA]
log10 Ki: 0.04

compound: NCc1ccc(Cl)cc1CNC(=O)[C@@H]1CCCN1C(=O)[C@@H](CC(=O)N1CCOCC1)NS(=O)(=O)Cc1ccccc1 [Compound 2.36]
log10 Ki: -0.42

compound: NCc1ccc(Cl)cc1CNC(=O)CC[C@@H](NS(=O)(=O)Cc1ccccc1)C(=O)N1CCC[C@H]1C(=O)NCc1cc(Cl)ccc1CN [Compound 2.30]
log10 Ki: 0.93
